Tested on: Mycobacterium tuberculosis Erdman (autoluminescent)
experimental.protocol: AUC25, normalised area under dose response up to IC25 (fraction (0-1)); higher = more potent at low dose
study.conditions: in vitro model: cholesterol 0.05 mM; time point: constant (~7 days, model-specific)
measured.metric: AUC25

{"compound": "CC[C@@H](CO)NCCN[C@@H](CC)CO [ethambutol] + CO[C@H]1/C=C/O[C@@]2(C)Oc3c(C)c(O)c4c(O)c(c(/C=N/N5CCN(C6CCCC6)CC5)c(O)c4c3C2=O)NC(=O)/C(C)=C\\C=C\\[C@H](C)[C@H](O)[C@@H](C)[C@@H](O)[C@@H](C)[C@H](OC(C)=O)[C@@H]1C [rifapentine]", "obs.value": 0.118}
{"compound": "CC[C@@H](CO)NCCN[C@@H](CC)CO [ethambutol] + NC(=O)c1cnccn1 [pyrazinamide]", "obs.value": 0.129}
{"compound": "COc1nc2ccc(Br)cc2cc1[C@@H](c1ccccc1)[C@@](O)(CCN(C)C)c1cccc2ccccc12 [bedaquiline] + CC(C)/N=c1\\cc2n(-c3ccc(Cl)cc3)c3ccccc3nc-2cc1Nc1ccc(Cl)cc1 [clofazimine]", "obs.value": 0.0912}
